Taken from patent US20060079497A1.

assayTarget: HIV-RT (Human immunodeficiency virus type 1 group M subtype B, UniProt P04585)
Construct: 1 unit/mL of HIV-RT (Worthington Biochemical Corp., Freehold, N.J.); purchased Worthington Biochemical Corp., Freehold, N.J
testDetails: Checkerboard combination of lavendamycin analogs with AZT-triphosphate in HIV-RT enzyme assay (Chou and Talalay)
Assay type: biochemical
assayContext: analogue 1.5 μM + AZT 0.02 μM, Trial 2
recordedMetric: Combination index

In [3]: df
Out[3]:
                                   molecule                               assaytarget     recordedmetric  valuereported
0  CC(=O)NC1=CC(=O)c2ccc(-c3nc(C(=O)O)cc4c3[nH]c3ccccc34)nc2C1=O [Compound 18, 7-N-Acetyldemethyllavendamycin]  HIV-RT (Human immunodeficiency virus type 1 group M subtype B, UniProt P04585)  Combination index           2.20
1  CCCCCCCCOC(=O)c1cc2c([nH]c3ccccc32)c(-c2ccc3c(n2)C(=O)C(N)=CC3=O)n1 [Compound 20, Demethyllavendamycin n-Octyl Ester]  HIV-RT (Human immunodeficiency virus type 1 group M subtype B, UniProt P04585)  Combination index           0.63
2  CCCCOC(=O)c1cc2c([nH]c3ccccc32)c(-c2ccc3c(n2)C(=O)C(NC(=O)CCC)=CC3=O)n1 [Compound 12]  HIV-RT (Human immunodeficiency virus type 1 group M subtype B, UniProt P04585)  Combination index           0.96
3  CC(=O)NC1=CC(=O)c2ccc(-c3nc(C(N)=O)cc4c3[nH]c3ccccc34)nc2C1=O [Compound 16, 7-N-Acetyldemethyllavendamycin Amide]  HIV-RT (Human immunodeficiency virus type 1 group M subtype B, UniProt P04585)  Combination index           1.00
4  COC(=O)c1nc(-c2ccc3c(n2)C(=O)C(NC(C)=O)=CC3=O)c2[nH]c3ccccc3c2c1C [Compound 11, 7-acetyllavendamycin methyl ester]  HIV-RT (Human immunodeficiency virus type 1 group M subtype B, UniProt P04585)  Combination index           1.08

====

assayTarget: HIV-RT (Human immunodeficiency virus type 1 group M subtype B, UniProt P04585)
Construct: 1 unit/mL of HIV-RT (Worthington Biochemical Corp., Freehold, N.J.); purchased Worthington Biochemical Corp., Freehold, N.J
testDetails: Two drug combination of AZT-TP and analogues at constant molar ratios in HIV-RT assay (CI and dose reduction index)
Format: biochemical
assayContext: molar ratio AZT:analogue 1:600
Items are presented alongside their recorded CI at HIV-RT Inhibition of 70%.
recordedMetric: CI at HIV-RT Inhibition of 70%

>>> df
                               recordsmiles                  recordedmetric  qual  valuereported
0  CCCCOC(=O)c1cc2c([nH]c3ccccc32)c(-c2ccc3c(n2)C(=O)C(NC(=O)CCC)=CC3=O)n1  CI at HIV-RT Inhibition of 70%     =           0.32
1  CC(=O)NC1=CC(=O)c2ccc(-c3nc(C(=O)O)cc4c3[nH]c3ccccc34)nc2C1=O  CI at HIV-RT Inhibition of 70%     =           1.35
2  CC(=O)NC1=CC(=O)c2ccc(-c3nc(C(=O)OCCOP(=O)(O)O)cc4c3[nH]c3ccccc34)nc2C1=O  CI at HIV-RT Inhibition of 70%     <            0.1
